# IC50 annotations
- target_or_system: DLK (Homo sapiens)
- Construct: 10 nM DLK, catalytic domain, Carna Biosiences; purchased Carna Biosciences ('Carna Biosiences' [sic])
- assay_info: DLK biochemical assay (TR-FRET, MKK7 phosphorylation)
- assay_context: DLK catalytic domain, MKK7 substrate, 60 μM ATP
endpoint: IC50

# compound, target_or_system, experimental_value
rows = [
    ("CC(CF)NC(=O)c1cc(-c2cnn(C3CCOc4ccccc43)c2)cn2nc(N)nc12 (mixture of isomers) [Example I-144]", "DLK (Homo sapiens)", "84 nM"),
    ("CCC(c1ccc(C(F)(F)F)nc1)n1cc(-c2cc(C(=O)N[C@H]3CCOC3)n3nc(N)nc3c2)cn1 (single isomer, unassigned) [Example I-178]", "DLK (Homo sapiens)", "17 nM"),
    ("CCC(c1ccc(N2CCOCC2)cc1)n1cc(-c2cc(C(=O)N[C@@H](C)CC)c3nc(N)nn3c2)cn1 (single isomer, unassigned) [Example I-49]", "DLK (Homo sapiens)", "1.5 nM"),
    ("CC(C)(CO)NC(=O)c1cc(-c2cnn(C(c3ccc(C(F)(F)F)nc3)C3CCOCC3)c2)cn2nc(N)nc12 (single isomer, unassigned) [Example I-168]", "DLK (Homo sapiens)", "1.5 nM"),
    ("CC[C@H](C)NC(=O)c1cc(-c2cnn([C@H](c3ccc(C(F)(F)F)nc3)C(C)C)c2)cn2nc(N)nc12 (single isomer, unassigned)", "DLK (Homo sapiens)", "1.1 nM"),
    ("CCC(c1ccc(C(F)(F)F)nc1)n1cc(-c2cc(C(=O)N[C@@H](C)CO)c3nc(N)nn3c2)cn1 (single isomer, unassigned) [Example I-152]", "DLK (Homo sapiens)", "0.7 nM"),
    ("CC[C@H](C)NC(=O)c1cc(-c2cnn([C@H](c3ccc(C(F)(F)F)nc3)C3CCN(C(C)=O)CC3)c2)cn2nc(N)nc12", "DLK (Homo sapiens)", "0.5 nM"),
    ("CC[C@H](C)NC(=O)c1cc(-c2cnn(C(c3ccc(C(F)(F)F)nc3)C3CCOCC3)c2)cn2nc(N)nc12 (single isomer, unassigned) [Example I-77]", "DLK (Homo sapiens)", "5.9 nM"),
    ("CC[C@H](C)NC(=O)c1cc(-c2cnn(C(c3ccc(C(F)F)nc3)C(C)C)c2)cc2nc(N)nn12 (mixture of isomers) [Example I-95]", "DLK (Homo sapiens)", "1.5 nM"),
    ("CCC(c1ccc(F)cn1)n1cc(-c2cc(C(=O)N[C@@H](C)CC)c3nc(N)nn3c2)cn1 (single isomer, unassigned) [Example I-56]", "DLK (Homo sapiens)", "2.7 nM"),
    ("CC[C@H](C)NC(=O)c1cc(-c2cnn(C(c3c(F)cncc3F)C(C)C)c2)cc2nc(N)nn12 (single isomer, unassigned) [Example I-125]", "DLK (Homo sapiens)", "5.4 nM"),
    ("CC[C@@H](c1ccc(OC(F)(F)F)nc1)n1cc(-c2cc(C(=O)N[C@@H](C)CO)c3nc(N)nn3c2)cn1 (single isomer, unassigned)", "DLK (Homo sapiens)", "0.6 nM"),
    ("C[C@@H](CO)NC(=O)c1cc(-c2cnn(C(c3ccc(C(F)(F)F)nc3)C3CCOCC3)c2)cn2nc(N)nc12 (single isomer, unassigned) [Example I-156]", "DLK (Homo sapiens)", "13 nM"),
    ("CC[C@H](C)NC(=O)c1cc(-c2cnn([C@@H](CC)c3cncc(Cl)c3)c2)cn2nc(N)nc12 (single isomer, unassigned)", "DLK (Homo sapiens)", "3.7 nM"),
    ("CC[C@H](C)NC(=O)c1cc(-c2cnn(C3CCCc4ccncc43)c2)cc2nc(N)nn12 (mixture of isomers)", "DLK (Homo sapiens)", "33 nM"),
    ("CC[C@H](C)NC(=O)c1cc(-c2cnn(C3CN(Cc4ccccc4)C3)c2)cn2nc(N)nc12", "DLK (Homo sapiens)", "55 nM"),
    ("CCC(c1ccc(OCC(F)(F)F)nc1)n1cc(-c2cc(C(=O)N[C@@H](C)CC)n3nc(N)nc3c2)cn1 (single isomer, unassigned) [Example I-114]", "DLK (Homo sapiens)", "49 nM"),
    ("CC[C@H](C)NC(=O)c1cc(-c2cnn(C(c3ccc(OCC(F)(F)F)nc3)C(C)C)c2)cn2nc(N)nc12 (single isomer, unassigned) [Example I-90]", "DLK (Homo sapiens)", "3 nM"),
    ("Nc1nc2c(C(=O)N[C@H]3CCOC3)cc(-c3cnn(Cc4cccc5cn[nH]c45)c3)cn2n1 (single isomer, unassigned)", "DLK (Homo sapiens)", "3.8 nM"),
    ("C[C@@H](CO)NC(=O)c1cc(-c2cnn(C(c3ccc(C(F)(F)F)nc3)C3CCOCC3)c2)cn2nc(N)nc12 (mixture of isomers) [Example I-154]", "DLK (Homo sapiens)", "1.1 nM"),
    ("CC(C)C(c1ccc(C(F)(F)F)nc1)n1cc(-c2cc(C(=O)N[C@H]3CCOC3)n3nc(N)nc3c2)cn1 (single isomer, unassigned) [Example I-181]", "DLK (Homo sapiens)", "2.1 nM"),
    ("CC(CF)NC(=O)c1cc(-c2cnn(C3CCOc4ccccc43)c2)cn2nc(N)nc12 (single isomer, unassigned) [Example I-145]", "DLK (Homo sapiens)", "110 nM"),
    ("CC[C@H](C)NC(=O)c1cc(-c2cnn(C(c3ccnc(OC)c3)C(C)C)c2)cc2nc(N)nn12 (mixture of isomers) [Example I-126]", "DLK (Homo sapiens)", "0.2 nM"),
]

====

- target_or_system: DLK (Homo sapiens, UniProt Q12852)
- Construct: 10 nM DLK, catalytic domain, Carna Biosiences; purchased Carna Biosciences ('Carna Biosiences' [sic])
- Sequence (Q12852 125-366 limits assumed): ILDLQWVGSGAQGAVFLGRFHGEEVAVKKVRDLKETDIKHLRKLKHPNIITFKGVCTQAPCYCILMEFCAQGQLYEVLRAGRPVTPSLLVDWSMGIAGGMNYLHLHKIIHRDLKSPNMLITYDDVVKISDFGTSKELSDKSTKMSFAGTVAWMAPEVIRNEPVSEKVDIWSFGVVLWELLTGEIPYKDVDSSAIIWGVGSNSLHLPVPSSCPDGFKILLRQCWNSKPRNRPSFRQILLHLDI
- assay_info: DLK biochemical assay (TR-FRET, MKK7 phosphorylation)
pIC50: −log10 of the molar value.

# compound, target_or_system, pIC50
measured = [
    ("CC(C)C(c1ccc(C(F)(F)F)nc1)n1cc(-c2cc(-c3cnn(CC(F)(F)F)c3)n3nc(N)nc3c2)cn1 (stereo not drawn) [II-139]", "DLK (Homo sapiens, UniProt Q12852)", 7.96),
    ("CC(C)C(c1ccc(C(F)F)nc1)n1cc(-c2cc(-c3ccc(C(F)(F)F)nc3)n3nc(N)nc3c2)cn1 (single isomer, unassigned) [II-65]", "DLK (Homo sapiens, UniProt Q12852)", 6.36),
    ("Nc1nc2cc(-c3cnn(C(c4ccc(C(F)(F)F)nc4)C4CCOCC4)c3)cc(-c3ccc(=O)n(CC(F)F)c3)n2n1 (stereo not drawn) [II-185]", "DLK (Homo sapiens, UniProt Q12852)", 8.89),
    ("CCC(c1ccc(C(F)(F)F)nc1)n1cc(-c2cc(-c3ccnc(C4(F)CC4)c3)n3nc(N)nc3c2)cn1 (single isomer, unassigned) [II-33]", "DLK (Homo sapiens, UniProt Q12852)", 7.77),
    ("CC(C)c1nnc(-c2cc(-c3cnn(Cc4ccccc4)c3)cn3nc(N)nc23)s1", "DLK (Homo sapiens, UniProt Q12852)", 6.82),
    ("CC(C)C(c1ccc(C(F)(F)F)nc1)n1cc(-c2cc(-c3ccc(C(F)(F)F)nc3)c3nc(N)nn3c2)cn1 (single isomer, unassigned) [II-42]", "DLK (Homo sapiens, UniProt Q12852)", 7.74),
]

====

- target_or_system: DLK (Homo sapiens, UniProt Q12852)
- Construct: 10 nM DLK, catalytic domain, Carna Biosiences; purchased Carna Biosciences ('Carna Biosiences' [sic])
- Sequence (Q12852 125-366 limits assumed): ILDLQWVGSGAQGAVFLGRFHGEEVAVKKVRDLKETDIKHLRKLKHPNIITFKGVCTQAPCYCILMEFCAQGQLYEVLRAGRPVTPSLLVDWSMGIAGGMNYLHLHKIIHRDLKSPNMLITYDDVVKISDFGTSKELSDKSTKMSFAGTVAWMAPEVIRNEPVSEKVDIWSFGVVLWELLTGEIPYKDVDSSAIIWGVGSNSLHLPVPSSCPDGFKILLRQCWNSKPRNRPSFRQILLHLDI
- assay_info: DLK biochemical assay (TR-FRET, MKK7 phosphorylation)

# compound, unit_annotation, IC50
rows = [
    ("Nc1nc2c(-c3ccn(CC(F)F)c(=O)c3)cc(-c3cnn(C(c4ccc(C(F)(F)F)nc4)C4CCOCC4)c3)cn2n1 (stereo not shown) [II-172]", "nM", 2.2),
    ("CC(C)C(c1ccc(C(F)(F)F)nc1)n1cc(-c2cc(-c3ccc(N4CCCC4)nc3)n3nc(N)nc3c2)cn1 (racemic)", "nM", 46),
    ("CC(C)C(c1ccc(C(F)(F)F)nc1)n1cc(-c2cc(-c3cnn(CC4CC4(F)F)c3)n3nc(N)nc3c2)cn1 (stereo not shown)", "nM", 8.4),
    ("Nc1nc2c(-c3ccc(C(F)(F)F)nc3)cc(-c3cnn(C4CCN(C5COC5)CC4)c3)cn2n1", "nM", 750),
    ("CCC(c1ccc(C(F)(F)F)cc1)n1cc(-c2cc(-c3cnn(C4CCCC4)c3)n3nc(N)nc3c2)cn1 (stereo not shown) [II-132]", "nM", 71),
    ("CC(C)(O)c1cccc(-c2cc(-c3cnn(C(c4ccc(C(F)(F)F)nc4)C4CCOCC4)c3)cn3nc(N)nc23)c1 (single isomer, unassigned) [II-11]", "nM", 1.4),
    ("CCC(c1ccc(C(F)(F)F)nc1)n1cc(-c2cc(-c3ccc(C4CC4)nc3)n3nc(N)nc3c2)cn1 (single isomer, unassigned) [II-56]", "nM", 37),
    ("COc1cc(C(C(C)C)n2cc(-c3cc(-c4cnn(CC(F)(F)F)c4)n4nc(N)nc4c3)cn2)ccn1 (stereo not shown) [II-136]", "nM", 3.4),
    ("Nc1nc2c(-c3cccc(S(=O)(=O)C(F)(F)F)c3)cc(-c3cnn(C(c4ccc(C(F)(F)F)nc4)C4CCOCC4)c3)cn2n1 (single isomer, unassigned) [II-21]", "nM", 7.6),
    ("CCC(c1ccc(C(F)(F)F)nc1)n1cc(-c2cc(-c3ccn(C)c(=O)c3)c3nc(N)nn3c2)cn1 (single isomer, unassigned) [II-171]", "nM", 9.3),
    ("Nc1nc2cc(-c3cnn(C(c4ccc(C(F)F)nc4)C4CCOCC4)c3)cc(-c3ccc(C(F)(F)F)nc3)n2n1 (racemic) [II-76]", "nM", 21),
    ("Nc1nc2c(-c3ccc(=O)n(CC(F)(F)F)c3)cc(-c3cnn(C(c4ccc(C(F)(F)F)nc4)C4CCOCC4)c3)cn2n1 (stereo not shown) [II-160]", "nM", 1.5),
    ("Nc1nc2cc(-c3cnn(C(c4ccc(C(F)(F)F)nc4)C4CCOCC4)c3)cc(-c3cn(CC(F)(F)F)c(=O)cn3)n2n1 (racemic) [II-194]", "nM", 3.6),
]
